Tested on: Staphylococcus aureus
Measurement Notes: Antibacterial activity against vancomycin-intermediate Staphylococcus aureus Mu50 after 24 hrs by microdilution method
Assay type: functional
Setup Conditions: Mu50, 24 h
Form field: MIC (one value per entry).
Measured Quantity: MIC (µg/mL)

{"columns": ["Compound", "Lt Gt Eq", "Endpoint Value"],
 "data": [
  ["Cc1ccc(CC(=O)OC[C@H]2O[C@@H](Oc3c(-c4ccc(O)c(O)c4)oc4cc(O)cc(O)c4c3=O)[C@H](OC(=O)Cc3ccc(C)cc3)[C@@H](O)[C@H]2O)cc1", "=", 4],
  ["CC(=O)OC[C@H]1O[C@@H](Oc2c(-c3ccc(O)c(O)c3)oc3cc(O)cc(O)c3c2=O)[C@H](OC(C)=O)[C@@H](OC(C)=O)[C@H]1OC(C)=O", "=", 64],
  ["O=c1c(O[C@@H]2O[C@H](CO)[C@H](O)[C@H](O)[C@H]2O)c(-c2ccc(O)c(O)c2)oc2cc(O)cc(O)c12 [HYPEROSIDE]", ">", 128],
  ["O=C(Cc1ccc(F)cc1)OC[C@H]1O[C@@H](Oc2c(-c3ccc(O)c(O)c3)oc3cc(O)cc(O)c3c2=O)[C@H](OC(=O)Cc2ccc(F)cc2)[C@@H](O)[C@H]1O", "=", 1]
]}
